Assay: label from the status in PepcDB records
observedProperty: protein production

Please review the following examples before continuing.
| chainSequence | protein production |
| --- | --- |
| MKLSDFIKTEDFKKEKHVPVIEAPEKVKKDEKVQIVVTVGKEIPHPNTTEHHIRWIKVFFQPDGDPYVYEVGRYEFNAHGESVQGPNIGAVYTEPTVTTVVKLNRSGTIIALSYCNIHGLWESSQKITVEE | not failed |
| MSLKTGRSNIIAFIVPDQNPFFTEVLTEISHECQKHHLHVAVASSEENEDKQQDLIETFVSQNVSAIILVPVKSKFQMKREWLKIPIMTLDRELESTSLPSITVDNEEAAYIATKRVLESTCKEVGLLLANPNISTTIGRKNGYNKAISEFDLNVNPSLIHYSDQQLGTNAQIYSGYEATKTLLSKGIKGIVATNHLLLLGALQAIKESEKEIKKDVIIVGFDDSYWNEIYTPKLTVISQPVKEMGQVAAKMIYKLIKGKDVTSIKLSTKLIIRESCSFNEGHHHHHH | not failed |
| MILLVPILIITLMYFMFENVPHRPGTPSGFNTACLVLLGLFPLFVMFVITAITMQRERASGTLERILTTPLRRLDLLAGYGTAFSIAAAAQATLACIVAFWFLGFDTAGSPVWVFAIAIVNAVLGVGLGLLCSAFARTEFQAVQFIPLVMVPQLLLAGIIVPRALMPTWLEWISNVMPASYALEALQQVGAHPELTGIAVRDVVVVLSFAVASLCLAAVTLRRRTS | failed |
| MLTLALCIMILFTYLCMFFNFKYSAHLSIYISQVILGYVVIIIHIGEHTLPIDILVVMSLGALLLHIKHKHLMQNRMSALFLKRLYYVAFKLVVFTLACFYISLIPIGINVIFLWISAISFSALFTFICYMMCSSNFLNLNNKPDFDVILVLGAGIFTENVTPMLASRLDRALTLYVQQPNAKFIVSGGQGPDEPISEALAMKRYLIHHGVESNHIMLEDQSTSTSENIQFSKSLIESHFECVPKIVCVTSQFHIMRALRFGQKFNLKLTGVGSHTPYHFFEIALIRDFLALMYQYKLLLTVYFAALFFICIITYWFIPSIPL | failed |
| MVWLWCVLHLLVAALGTWGLRRYALHRRLLDHPGERRSHVVATPRGGGMAIVAAILLGCVAACALWPTSRLTVCWFAAGLVAVAGVGWWDDHRPLSARLRFSIHLAASVALGALVWHGTGSVWDGVLTAAASVMLINVWNFMDGINGLASTQAALAALGFSLVAPVGWSWAGLAVAAACLGFVPFNFPRARIFMGDGGSGALGYVLAALLALNVAGGQVSWWISWLPLTAFLVDAGFTLLARMLSGQRWWEPHAQHVYQRLARRLETHVPVTGVYFAFSLIAVCLYLLIRHDPFWLQVSGALVWGMGATAIWHFLRDGLRNS | failed |
| MNPFKNFETRQVLEETCEVHGCQLWLTKVPIKGRLEELKQCPECTKAAINIFENKLNSQSKINSKLADTYAVFERDSLVSDKLRAKSLENYEIKDEIDQHAINYAKRMEQFYRQDRTGNAIITGPSGVGKSHLTYGLAKFMNEQFKAYESPKSVLFISLVSLFTKIKESFKVDNGYRQADMIELLTRVDYLFLDDLGKESRKGDSQNNEWTHQILYEILDNRSNTIINTNLSSKEIKALYADNYGNGALSSRILEGVTGNSFAYPKDMEDRRY | failed |
| LEVLVKTLDSQTRTFIVGAQMNVKEFKEHIAASVSIPSEKQRLIYQGRVLQDDKKLQEYNVGGKVIHLVERAP | not failed |
| VPMNIKGLFEVAVKVKNLEKSSQFYTEILGFEAGLLDSARRWNFLWVSGRAGMVVLQEEKENWQQQHFSFRVEKSEIEPLKKALESKGVSVHGPVNLEWMQAVSLYFADPNGHALEFTAL | not failed |

[ask] What value of measured protein production is listed for MLKLTATKQTSQQRSLKMNTLTKLLAATMTLSAQAMAATPLTLDVYNADGNSFHVNATVVYGETEAMVVDTGFTKADALRIGAKVLDSGKTLKTIFISQADPDYYFGAEVLKQMFPQAEVIATPGVKAKIEQKLQGKLDFWAPKMGANAPVKPVLPTAYQGKTLEIDGQTIEIRGTEGELKHRPYLWIPANAAILGNVAVYGNVHLWMADAQTDSERKAWAEQLDEMAALKPKVVIPGHMTPGTAMDSSAITFSQKYLADFAKAKASSKNSAQLIEKMSKIYPDAGLPMALEIGAKVHTGEMKW ?
[reply] failed

[ask] What value of measured protein production is listed for AGGEDRGDGEPVSVVTVRVQYLEDTDPFACANFPEPRRAPTCSLDGALPLGAQIPAVHRLLGAPLKLEDCALQVSPSGYYLDTELSLEEQREMLEGFYEEISKGRKPTLILRTQLSVRVNAILEKLYSSSGPELRRSLFSLKQIFQEDKDLVPEFVHSEGLSCLIRVGAAADHNYQSYILRALGQLMLFVDGMLGVVAHSDTIQWLYTLCASLSR ?
[reply] failed

[ask] What value of measured protein production is listed for METSRVEEWFERGVEALGHDQVYLARSCFEHVARVNQHPAASSYLALCQAKTRGKFSDAIALARESIAREPHNPLLYQNLGRIYQLAGMRMDAVEVLREGVRRGAGEEAVAELNRIGTRKQPPFRRLHRNHPLNKYVGKLLARLRLR ?
[reply] failed

[ask] What value of measured protein production is listed for MAEFPASLLILNGKSTDNLPLREAIMLLREEGMTIHVRVTWEKGDAARYVEEARKFGVATVIAGGGDGTINEVSTALIQCEGDDIPALGILPLGTANDFATSVGIPEALDKALKLAIAGDAIAIDMAQVNKQTCFINMATGGFGTRITTETPEKLKAALGSVSYIIHGLMRMDTLQPDRCEIRGENFHWQGDALVIGIGNGRQAGGGQQLCPNALINDGLLQLRIFTGDEILPALVSTLKSDEDNPNIIEGASSWFDIQAPHDITFNLDGEPLSGQNFHIEILPAALRCRLPPDCPLLR ?
[reply] not failed

[ask] What value of measured protein production is listed for MSLELARRLVEILLALALIQQSLEHLRGFRDERILFGARIVLAVLVLAGVAGPWPLVGLAGLSLLILHRFQGPYNGGSDRMGLLILWCLTLSSLAPTPILAELAFGYLGAQLTLSYFISGWVKVVNPDWRSGRALRDVFQFSAYPVAESLRGFAQRPGLLRAMSWGVMGFELAFPLTLLWPPALMVGLVVAGTFHLANACLFGLNRFFWTWLSAYPAILWLQGRVF ?
[reply] failed

----------
Experiment: label from the status in PepcDB records
observedProperty: protein production

| chainSequence | endpointValue |
| --- | --- |
| MEVHAADQYLVAPGEADLLEVHARLAGTGLFPPFPPVELPGGVGGLVARGGFAQTFFFPAEVLGLTFRTPKGRRVRAGGVVVKNVQGYDLVRLFVGSFGLLGRAEEVVLRLRPGRAQAFLRRPFSGSFPRLVPTPRFLFALEDEEGPWLYAYHFGHPKEVERFREAFGGEEARPLDLRPRFPRGLGLGEGPLWDLRFRYQDGGASPPPPPAFLRLARVL | not failed |
| MIPFKDITLADRDTITAFTMKSDRRNCDLSFSNLCSWRFLYDTQFAVIDDFLVFKFWAGEQLAYMMPVGNGDLKAVLRKLIEDADKEKHNFCMLGVCSNMRADLEAILPERFIFTEDRAYADYIYLRSDLATLKGKKFQAKRNHINRFRNTYPDYEYTPITPDRIQECLDLEAEWCKVNNCDQQEGTGNERRALIYALHNFEALGLTGGILHVNGKIVAFTFGMPINHETFGVHVEKADTSIDGAYAMINYEFANRIPEQYIYINREEDLGIEGLRKAKLSYQPVTILEKYMACLKDHPMDMVRW | not failed |
| MSLNTSIYGLIGEKLGHSHSSYIHKLIFEKVGIKGIYNLFEVPKEKLKESVDTFKIIKCGGLNVTIPYKVEVMKELYEISEKARKIGAVNTLKFSREGISGFNTDYIGFGKMLSKFRVEIKNNICVVLGSGGAARAVLQYLKDNFAKDIYVVTRNPEKTSEIYGEFKVISYDELSNLKGDVIINCTPKGMYPKEGESPVDKEVVAKFSSAVDLIYNPVETLFLKYARESGVKAVNGLYMLVSQAAASEEIWNDISIDEIIVDEIFEVLEEKIKSEGHHHHHH | not failed |

----------
Assay: label from the status in PepcDB records
observedProperty: protein production

Please review the following examples before continuing.
| chainSequence | protein production |
| --- | --- |
| MRFKAELMNAPEMRRALYRIAHEIVEANKGTEGLALVGIHTRGIPLAHRIARFIAEFEGKEVPVGVLDITLYRDDLTEIGYRPQVRETRIPFDLTGKAIVLVDDVLYTGRTARAALDALIDLGRPRRIYLAVLVDRGHRELPIRADFVGKNVPTSRSEVVKVKVEEVDGEDRVELWEREGA | not failed |
| MENKYLVSIIVPVHNTADYLHKCIESLRSQTLQQIEIILVDNLSVDGSSEICDEYAKIDKRIKVLHLSIAGLSIARNAGMRIASAPYIGFVDSDDYVEPAMFEKMLDAMVQSDAEIAYCNFLLEYEFKPNESPYRNSGDIVIRDPKNVLQDMMMEKVSCSACTKLYKSGFLTSLQFPEGKNYEDRLVMYEWVALCKKVVWVDSPFYHYVERQTSICHTMSPMNLYHYFLAEYARMRFMEKYSLFEEEDLFKIRTRLIGTCLTIFKEILLKVNLREFKEPVKDMRQKMKEIAALPEDTYELKYRRRVRKIAYHWHLYYLTHFLFKKGGDSLEHHHHHH | failed |
| MGIHLFWDSRVPVGLSRPVSEELSAVLEMPVSRIDDGIFPLEGFDPVRNQYDAVKVLLKLDMFRRRMPQIFKPADMDLEFYNKFNHLHEKILLVTPGDLYEPLADFVFGLAYPKLGVAIVSPHRLQNEFYGKYADDSALIDRIVKEGAHEIGHLFGLGHCDNPGCIMYCPRNLDELDRKRKYFCGKCRVQLNGDTLEDDLFSLEHHHHHH | not failed |
| MNYKLTLHPGSNPVEEFTSIPHGVTSLDLSLNNLYSISTVELIQAFANTPASVTSLNLSGNSLGFKNSDELVQILAAIPANVTSLNLSGNFLSYKSSDELVKTLAAIPFTITVLDLGWNDFSSKSSSEFKQAFSNLPASITSLNLRGNDLGIKSSDELIQILAAIPANVNSLNLRGNNLASKNCAELAKFLASIPASVTSLDLSANLLGLKSYAELAYIFSSIPNHVVSLNLCLNCLHGPSLENLKLLKDSLKHLQTVYLDYDIVKNMSKEQCKALGAAFPNIQKIILVDKNGKEIHPSHSIPISNLIRELSGKADVPSLEHHHHHH | not failed |
| MKHAQKYRYFSLLMGLVLLLSACQIGATTKDDNQAATKEATVELNRTTTPTLFFHGYAGTKNSFGSLLHRLEKQGATTQELVLLVKPDGTVVKERGALSGKATNPSVQVLFEDNKNNEWNQTEWIKNTLLYLQKNYQVNKANIVGHSMGGVSGLRYLGTYGQDTSLPKIEKFVSIGAPFNDFIDTSQQQTIETELENGPTEKSSRYLDYQEMINVVPEKLPILLIGGQLSPTDLSDGTVPLSSALAVNALLRQRGTQVTSQIIKGENAQHSQLHENPEVDQLLIEFLWPSKK | failed |

Pending sequence:
[ask] What value of measured protein production is listed for MADSLAGIDQVTSLHKNNELQLLCFRLGKNKDLYAVNVFKIREVVKYHGNLTIISHENNSLVEGLIIIRELTIPLIDMKKWFYYDSQNKNKDLRPYRIEKEKGEDDIVMICEFSRWTIGVRIYEADRILSKKWTEMEQSAGLGGSAGNNKLVSRTRYFDGRLVQVVDIEKMLIDVFPWIEDEKHNDLETLSKIHSNQCVLLADDSPSVLKTMQMILDKLGVKHIDFINGKTLLEHLFNPTTDVSNIGLIITDLEMPEASGFEVIKQVKNNPLTSKIPIVVNSSMSGSSNEDMARSLKADDFISKSNPKDIQRVVKQFLELA ?
[reply] failed
